The values you see were collected from the supplement of paper PMC6555819.

System: FXR:RXRa (NR concentration 270 nM, RXRa partner concentration 90 nM)
Experimental protocol: PBM binding z-score (relative to random genomic background probes); higher = stronger binding; sequences stand for … in GC…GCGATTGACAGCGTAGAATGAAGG
Would you mind classing the entries by PBM binding z-score? Ranges: bin A (below 0.6), bin B (0.6 to below 2), bin C (2 or more)

• GATACAGGGTCAGCTAGCGGCCAGAGTATGGAAA = bin C
• CGTCAAAGTTCAACTCAGGTAACGTAAAGCACGC = bin C
• TCTTTTAGATCAATAGAGGTTAAGAAAGTGCGCT = bin B
• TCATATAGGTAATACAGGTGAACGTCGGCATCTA = bin B
• ACTGACAGGTGATGAAGGTAACTCAGGCTATCAT = bin A
• TCTAGTTGGTAACGGAGGTCACACACGACGGGTA = bin C
• CCTCGGAGTACAACAGGAGGTCAGAGCTGCCAGA = bin B
• ACGAGTTGGTCAGCTGAGGTCACACACAATTCGG = bin C
• TGAATGAGGGTATAAGATCAGGGAACGTTGCAAA = bin A
• CCTCTGAGGACAACAGGAGGTCAGAGCTGCCAGA = bin B
• AGAATGACGTTATTAAGATCAGGGAATTGCGGTC = bin A
• TAGCCTAGGTTAGATCGGGCCAGTATACGCTATA = bin A
• CTCGAAAGGTCGGTGGAGGTGAGTATACGGATAA = bin C
• CCTACTCGGCCACGAAAGGTCATTGATTCAGTGA = bin C
• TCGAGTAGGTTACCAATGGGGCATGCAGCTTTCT = bin A
• ATTAGCAGGCCAAGTTTGGGTCACTCAAACAAAG = bin A
• TCATATAGGTAAATGCTAGGTCAAAGTCCGATCT = bin B
